Assay system: sPHGDH (1-307) (Homo sapiens, UniProt O43175)
Construct: the truncated version of PHGDH (sPHGDH, 1-307); made in house
Sequence (O43175 1-307): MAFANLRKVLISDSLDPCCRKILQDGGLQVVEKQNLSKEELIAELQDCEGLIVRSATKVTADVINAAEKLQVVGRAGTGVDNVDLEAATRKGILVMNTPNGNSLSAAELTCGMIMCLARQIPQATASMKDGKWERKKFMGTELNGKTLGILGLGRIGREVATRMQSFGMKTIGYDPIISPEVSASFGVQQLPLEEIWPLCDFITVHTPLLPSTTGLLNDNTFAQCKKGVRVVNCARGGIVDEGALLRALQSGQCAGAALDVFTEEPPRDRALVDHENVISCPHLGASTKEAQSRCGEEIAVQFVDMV
Test method notes: sPHGDH enzyme activity assay (NADH fluorescence)
Format: biochemical
Applied conditions: peptide concentration of 50 µM; sPHGDH
Bridge positions count the residues as written; N and C are the ends. Ends that are not written are not given here.
Assay metric: Inhibition Rate (%)

• C1TPQA TKSML DGKWE EKKC19 (CTPQATKSMLDGKWEEKKC; disulfide 1-19; not fully specified (N-terminus); printed as C_1_TPQA TKSML DGKWE EKKC_19_) [Cyc1-3, single disulfide cyclic peptide with substitution A7K] = 19
